assay: Appetite suppression in mice, acute assay (food consumption); format: in vivo; conditions: 10 mg/kg i.p., mice deprived of food 18 hours
Marks after values point to notes of the source that are not given here.
measurement name: Mean food consumption 90 min. after injection: g (±SEM) Compound

Mean food consumption 90 min. after injection: g (±SEM) Compound in this record for CCNC(C)Cc1cccc(C(F)(F)F)c1 (stereo not shown) [+/−Fenfluramine, Fenfluramine, reference compound] : 0.56 (.13)* g

Per the record, CN(C)CCc1cn(C)c2c(F)ccc(O)c12 [Compound O-3804] has Mean food consumption 90 min. after injection: g (±SEM) Compound of 1.76 (.15) g

The reported Mean food consumption 90 min. after injection: g (±SEM) Compound of the compound CCCn1cc(CCN(C)C)c2c(OP(=O)(O)O)ccc(F)c21 [Compound O-4309] was 0.68 (0.1)* g

Note to self: Mean food consumption 90 min. after injection: g (±SEM) Compound recorded for CN(C)CCc1cn(C)c2c(F)ccc(OP(=O)(O)O)c12 [Compound O-3944] was 1.38 (.13) g

###

molecular target: 5-HT2A (Homo sapiens, UniProt P28223)
Sequence (P28223 whole entry): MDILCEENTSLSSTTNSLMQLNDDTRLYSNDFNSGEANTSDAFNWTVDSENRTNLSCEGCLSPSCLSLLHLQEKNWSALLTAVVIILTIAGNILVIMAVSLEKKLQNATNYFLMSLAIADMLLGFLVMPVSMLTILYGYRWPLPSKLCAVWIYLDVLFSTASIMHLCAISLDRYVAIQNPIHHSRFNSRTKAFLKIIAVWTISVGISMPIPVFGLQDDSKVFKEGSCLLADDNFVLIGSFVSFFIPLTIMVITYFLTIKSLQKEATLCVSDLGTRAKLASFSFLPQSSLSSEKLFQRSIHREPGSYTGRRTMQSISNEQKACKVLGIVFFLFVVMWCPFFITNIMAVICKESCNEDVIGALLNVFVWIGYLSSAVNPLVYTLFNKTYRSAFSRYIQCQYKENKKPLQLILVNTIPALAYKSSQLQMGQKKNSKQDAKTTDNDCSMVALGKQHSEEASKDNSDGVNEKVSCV
Please provide measured pKi for the entries that follow.
Hey, just a heads up that pKi is the negative log base 10 of the concentration in molar.

The reported value for CCCn1cc(CCN(C)C)c2c(O)ccc(F)c21 [Compound O-3952] in terms of pKi is 6.31

Lab note: measured pKi of CCn1cc(CCN(C)C)c2c(O)ccc(F)c21 [Compound O-3943] was 7.01

Lab note: measured pKi of CN(C)CCc1cn(C)c2c(F)ccc(O)c12 [Compound O-3804] was 7.17

Reported pKi of CN(C)CCc1cn(CCF)c2c(F)ccc(O)c12 [Compound O-3975] : 6.51

###

molecular target: 5-HT2B (Homo sapiens); experiment: Phosphoinositide hydrolysis functional assay; format: cell-based; set-up: expressed in transfected cells; conditions: activation of phosphoinositide hydrolysis, transiently expressed receptor
Sequence (P41595 whole entry): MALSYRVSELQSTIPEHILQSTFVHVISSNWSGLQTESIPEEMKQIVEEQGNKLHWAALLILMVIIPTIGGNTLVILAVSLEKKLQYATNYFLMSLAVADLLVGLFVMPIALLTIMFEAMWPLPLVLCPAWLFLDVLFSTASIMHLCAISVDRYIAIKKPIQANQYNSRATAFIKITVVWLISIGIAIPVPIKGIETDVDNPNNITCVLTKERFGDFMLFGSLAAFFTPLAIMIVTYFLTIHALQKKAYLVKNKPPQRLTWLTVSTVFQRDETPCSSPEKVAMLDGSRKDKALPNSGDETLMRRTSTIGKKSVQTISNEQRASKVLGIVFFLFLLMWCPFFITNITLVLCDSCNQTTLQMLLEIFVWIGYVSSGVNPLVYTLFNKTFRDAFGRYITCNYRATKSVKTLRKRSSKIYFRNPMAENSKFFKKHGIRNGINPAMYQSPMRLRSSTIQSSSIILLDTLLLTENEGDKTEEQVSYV
Kindly supply the reported EC50 values for the records listed here.

The value of EC50 measured for the molecule CN(C)CCc1cn(C)c2c(F)ccc(O)c12 [Compound O-3804] turned out to be 0.0354 µM

Entry CN(C)CCc1cn(CCF)c2c(F)ccc(O)c12 [Compound O-3975] — recorded EC50 = > 10 µM

Just so you know, measured EC50 for CCCn1cc(CCN(C)C)c2c(O)ccc(F)c21 [Compound O-3952] came out at > 10 µM

Lab book: EC50 of CCn1cc(CCN(C)C)c2c(O)ccc(F)c21 [Compound O-3943] noted as > 10 µM

###

For each entry below, report its EC50 value.
target: 5-HT2A (Homo sapiens, UniProt P28223); assay: Phosphoinositide hydrolysis functional assay; conditions: activation of phosphoinositide hydrolysis, stably expressed receptor
# answer = value followed by unit

Form: molecule = CCn1cc(CCN(C)C)c2c(O)ccc(F)c21 [Compound O-3943] ; EC50 = 12.9 nM

Lab note: CCCn1cc(CCN(C)C)c2c(O)ccc(F)c21 [Compound O-3952] gave EC50 of 1280 nM

For reference, reported EC50 for CN(C)CCc1cn(C)c2c(F)ccc(O)c12 [Compound O-3804] stands at 129 nM
